Tested on: recombinant NL4-3 virus (nef section replaced with Renilla luciferase gene) in MT-2 cells
Assay: HIV cell culture assay (antiviral activity, luciferase readout)
Type: cell-based
Conditions: Renilla, NL43, MT-2 cells infected for 4-5 days with recombinant NL4-3 Renilla luciferase virus, serial dilutions of compound
value-kind: EC50 (nM)
Unit nM implied. Number only.

- smiles-entry: "Cn1nc(NS(C)(=O)=O)c2c(Cl)ccc(-n3c([C@H](Cc4cc(F)cc(F)c4)NC(=O)Cn4nc(C(F)F)c5c4C(F)(F)[C@@H]4C[C@H]54)nc4cc(-c5ccc(F)cc5)ccc4c3=O)c21"
  target: "recombinant NL4-3 virus (nef section replaced with Renilla luciferase gene) in MT-2 cells"
  EC50 / nM: 0.95

Below: the item to evaluate.
Exam item: // lookup EC50 for Cc1ccnc(-c2ccc3c(=O)n(-c4ccc(Cl)c5c(NS(=O)(=O)C6CC6)nn(CC(F)F)c45)c([C@H](Cc4cc(F)cc(F)c4)NC(=O)Cn4nc(C(F)F)c5c4C(F)(F)[C@@H]4C[C@H]54)nc3c2)n1
Marked response: 0.1
